# Test system: Bacillus subtilis
# Method Notes: Inhibition of Bacillus subtilis cell division assessed as induction of filamentous phenotype at 25 to 100 uM incubated for 1.5 hrs by fluorescence microscopic analysis
# Type: functional, organism-based
# Details: dose 25-100 µM
Activity calls are given as the source filed them. No cut-off for these calls is given here.
# valid calls are active, inactive; nothing else

{"columns": ["Smiles Entry", "Assigned Category"],
 "data": [
  ["CCC[C@H](COc1ccc(F)c(C(N)=O)c1F)Nc1ccc([N+](=O)[O-])c2nonc12", "active"],
  ["CCC[C@@H](COc1ccc(F)c(C(N)=O)c1F)Nc1ccc([N+](=O)[O-])c2nonc12", "active"],
  ["CCC[C@@H](CNc1ccc([N+](=O)[O-])c2nonc12)Oc1ccc(F)c(C(N)=O)c1F", "active"]
]}

Consider now this further compound.
[ask] // outcome(item) with item = "CCC[C@H](CNc1ccc([N+](=O)[O-])c2nonc12)Oc1ccc(F)c(C(N)=O)c1F"
[reply] inactive

---

# System: Cell division protein FtsZ (Bacillus subtilis) (UniProt A5Z1V5)
# Sequence (A5Z1V5 as listed by the source): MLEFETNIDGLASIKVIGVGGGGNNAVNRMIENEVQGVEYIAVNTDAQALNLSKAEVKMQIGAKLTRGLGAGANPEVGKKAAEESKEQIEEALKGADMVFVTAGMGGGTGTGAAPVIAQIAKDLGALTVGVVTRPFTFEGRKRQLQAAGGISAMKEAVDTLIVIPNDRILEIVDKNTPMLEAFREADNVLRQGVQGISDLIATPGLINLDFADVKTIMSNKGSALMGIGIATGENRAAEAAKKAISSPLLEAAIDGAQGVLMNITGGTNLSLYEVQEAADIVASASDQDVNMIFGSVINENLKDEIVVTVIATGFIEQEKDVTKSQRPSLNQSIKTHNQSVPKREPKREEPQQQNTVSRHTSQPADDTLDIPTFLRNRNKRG
# Method Notes: Binding affinity to Bacillus subtilis FtsZ assessed as decrease in fluorescence anisotropy values at 20 to 200 uM by fluorescence anisotropy analysis
# Details: dose 20-200 µM
Active and inactive are the calls of the source. The calls are words filed in the database; no cut-off is given here.
Your response should consist of one outcome taken from active, inactive

Answered examples (3):
{"columns": ["Smiles Entry", "Assigned Category"],
 "data": [
  ["CN(Cc1cccc(Cl)c1)c1cccc(C(N)=O)c1", "inactive"],
  ["O=C(O)CCN(Cc1ccccc1)Cc1cccc(Sc2ccccc2)c1", "inactive"],
  ["CCN(CC)CCNc1nc(/C=C/c2ccc(Cl)cc2)nc2cc3ccccc3cc12", "inactive"]
]}

[ask] Can you look up the reported call for "O=C(O)C(=O)c1cn(Cc2ccccc2)c2ccc(-c3ccc(OC(F)(F)F)cc3)cc12" for me?
[reply] inactive

[ask] Lab log entry: "Oc1ccc(/C=C/c2cc(O)cc(O)c2)cc1" — outcome as called in the assay?
[reply] inactive

[ask] Outcome logged for "CC1=CC(=O)c2c(O)cccc2C1=O" in this assay:
[reply] inactive

[ask] Would you mind telling me which call this test gave "CN(Cc1cccc(Cl)c1)c1ccc(C(N)=O)cc1" ?
[reply] inactive

---

# System: Cell division protein FtsZ (Bacillus subtilis) (UniProt A5Z1V5)
# Method Notes: Binding affinity to Bacillus subtilis FtsZ assessed as decrease in fluorescence anisotropy values at 20 to 200 uM by fluorescence anisotropy analysis
# Details: dose 20-200 µM
Active and inactive are the calls of the source. The rule behind the calls is not given here.

{"columns": ["Smiles Entry", "Activity"],
 "data": [
  ["NC(=O)c1ccc(NCc2cccc(Cl)c2)cc1", "inactive"],
  ["NC(=O)c1cccc(NCc2cccc(Cl)c2)c1", "inactive"]
]}

Recorded values, source ChEMBL document CHEMBL5033991.
